Origin of the recorded values: the supplement of paper PMC10307832

Tested on: EMC-BAC-2
Test: relative viability (nuclei count vs DMSO), 5 days (fraction); higher = more cells survive
Conditions: first compound 8 µM
Recorded relative viability values for a group of compounds are listed next.

>  <compound>
O=c1[nH]c2ccccc2n1C1CCN(CCCC(c2ccc(F)cc2)c2ccc(F)cc2)CC1 [Pimozide] + COc1cccc2cc(-c3nc([C@H]4CC[C@H](C(=O)O)CC4)n4ncnc(N)c34)[nH]c12 [OSI-027] (partner 0.5 µM)

>  <experimental.endpoint>
relative viability

>  <endpoint.result>
0.391

$$$$
>  <compound>
O=c1[nH]c2ccccc2n1C1CCN(CCCC(c2ccc(F)cc2)c2ccc(F)cc2)CC1 [Pimozide] + Cc1cc(Nc2cc(N3CCN(C)CC3)nc(Sc3ccc(NC(=O)C4CC4)cc3)n2)n[nH]1 [Tozasertib] (partner 0.1 µM)

>  <experimental.endpoint>
relative viability

>  <endpoint.result>
0.297

$$$$
>  <compound>
O=c1[nH]c2ccccc2n1C1CCN(CCCC(c2ccc(F)cc2)c2ccc(F)cc2)CC1 [Pimozide] + CC(=O)Nc1cccc(-n2c(=O)n(C3CC3)c(=O)c3c(Nc4ccc(I)cc4F)n(C)c(=O)c(C)c32)c1 [Trametinib] (partner 0.02 µM)

>  <experimental.endpoint>
relative viability

>  <endpoint.result>
0.802

$$$$
>  <compound>
O=c1[nH]c2ccccc2n1C1CCN(CCCC(c2ccc(F)cc2)c2ccc(F)cc2)CC1 [Pimozide] + Cc1nc(Nc2ncc(C(=O)Nc3c(C)cccc3Cl)s2)cc(N2CCN(CCO)CC2)n1 [Dasatinib] (partner 0.075 µM)

>  <experimental.endpoint>
relative viability

>  <endpoint.result>
0.218

$$$$
>  <compound>
O=c1[nH]c2ccccc2n1C1CCN(CCCC(c2ccc(F)cc2)c2ccc(F)cc2)CC1 [Pimozide] + C[C@]1(O)C[C@@H](c2nc(-c3ccc4ccc(-c5ccccc5)nc4c3)c3c(N)nccn32)C1 [Linsitinib] (partner 1 µM)

>  <experimental.endpoint>
relative viability

>  <endpoint.result>
0.749

$$$$

Give EMC-BAC-2 relative viability for O=c1[nH]c2ccccc2n1C1CCN(CCCC(c2ccc(F)cc2)c2ccc(F)cc2)CC1 [Pimozide] + N=C(N)NC(=N)NCCc1ccccc1 [Phenformin] (partner 250 µM)
0.519
